system: RARa homodimer (NR concentration 270 nM); assay: PBM binding z-score (relative to random genomic background probes); higher = stronger binding; sequences stand for … in GC…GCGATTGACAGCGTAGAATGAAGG
Observed property: PBM binding z-score
// return just the number, without any unit appended

Field: example entries. Status: answers known.
{"Polymer sequence": "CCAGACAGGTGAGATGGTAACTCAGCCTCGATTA", "Assayed target": "RARa homodimer (NR concentration 270 nM)", "Observed property": "PBM binding z-score", "Obs value": 0.738}
{"Polymer sequence": "CAAACTAGGGCAAGAGGTCAAAGTCCGCTTCCCG", "Assayed target": "RARa homodimer (NR concentration 270 nM)", "Observed property": "PBM binding z-score", "Obs value": 1.61}
{"Polymer sequence": "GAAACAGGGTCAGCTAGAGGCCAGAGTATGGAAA", "Assayed target": "RARa homodimer (NR concentration 270 nM)", "Observed property": "PBM binding z-score", "Obs value": 0.262}
{"Polymer sequence": "AATAAAGGGTCACTAGGCCAGAGTAGGTACGAAT", "Assayed target": "RARa homodimer (NR concentration 270 nM)", "Observed property": "PBM binding z-score", "Obs value": 1.9}
{"Polymer sequence": "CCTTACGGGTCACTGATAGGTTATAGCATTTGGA", "Assayed target": "RARa homodimer (NR concentration 270 nM)", "Observed property": "PBM binding z-score", "Obs value": 1.27}
{"Polymer sequence": "TTACCAAGGTGAAGGTGGTTGATCCCTCTGTAGA", "Assayed target": "RARa homodimer (NR concentration 270 nM)", "Observed property": "PBM binding z-score", "Obs value": -0.245}

Look at this sequence and give its reported PBM binding z-score. TGTTGTAGATCAATAGAGGTTAAGAAAGTGCGCT
1.61

And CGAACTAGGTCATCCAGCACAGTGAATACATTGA ?
0.526

And CCTAGTTGGTCAGGAGCTCACACACCGGATATGA ?
0.575
